These entries and their values trace back to paper PMC12152147.

# Test system: CD34+ cord blood cells
# measurementDescription: Chemical screen / dose response on CD34+ cord blood cells
# Assay type: cell-based, Human
# conditionDetails: Homo sapiens; dose-response; read-out: IC50 on purified CD34+ cells from cord blood

- compound: "CN(C)c1ccc(CC(=O)Nc2ncc(SCc3cccnc3)s2)cc1"
  measurementUnit: "nM"
  IC50: 1310

###

# System: primary AML specimens
# measurementDescription: Dose-response assays in primary AML specimens (6 days, CellTiterGlo)
# Assay type: cell-based, human
# conditionDetails: Homo sapiens, 144 h, read-out: median IC50 in a panel of 40 primary AMLs, 6 days
The compounds listed here are annotated with their IC50.

- compound: "O=C(Cc1ccc(-c2ccccn2)cc1)Nc1ncc(SCc2cccnc2)s1"
  IC50: "154 nM"
- compound: "CN(C)c1ccc(CC(=O)Nc2ncc(SCc3cccnc3)s2)cc1"
  IC50: "1210 nM"

###

# Test system: primary AML specimens
# measurementDescription: Dose-response assays in primary AML specimens (6 days, CellTiterGlo)
# Assay type: cell-based, human
# conditionDetails: primary AML specimen 08H085; 6 days; read-out: IC50
The molecules listed here are annotated with their IC50.

- molecule: "CC[C@H](CO)Nc1nc(NCc2ccc(-c3ccccn3)cc2)c2ncn(C(C)C)c2n1 [CR8]"
  testTarget: "primary AML specimens"
  measurementUnit: "nM"
  IC50: 63.1
- molecule: "Cc1cccc(Nc2nc(CC(=O)Nc3ncc(C)s3)cs2)n1 [HQ461]"
  testTarget: "primary AML specimens"
  measurementUnit: "nM"
  IC50: 1050

###

# Test system: OCI-AML5 cells expressing shRNAs targeting CDK1, 2, 4, 7, 9, cyclin K
# measurementDescription: Dose response in OCI-AML5 expressing shRNAs targeting CDK1, 2, 4, 7, 9, cyclin K or control
# Type: cell-based, H. sapiens
# conditionDetails: Homo sapiens, OCI-AML-5, OCI-AML5 expressing shRNA CDK2; read-out: IC50 shRNA CDK2
The compounds listed here are annotated with their IC50.

- compound: "O=C(Cc1cnccn1)Nc1ncc(SCc2cccnc2)s1"
  measurementUnit: "µM"
  limitSign: ">"
  IC50: 10
- compound: "CSc1ccc(CC(=O)Nc2ncc(SCc3cccnc3)s2)cc1"
  measurementUnit: "µM"
  limitSign: "="
  IC50: 1.28
- compound: "O=C(Cc1cccnc1)Nc1ncc(SCc2cccnc2)s1"
  measurementUnit: "µM"
  limitSign: "="
  IC50: 2.32
- compound: "C=C(C(=O)Nc1ncc(SCc2cccnc2)s1)c1ccc2c(c1)[nH]c1ccc(Cl)cc12"
  measurementUnit: "µM"
  limitSign: "="
  IC50: 3.43

###

# Test system: primary AML specimens
# measurementDescription: Dose-response assays in primary AML specimens (6 days, CellTiterGlo)
# Type: cell-based, human
# conditionDetails: Homo sapiens, 144 h, primary AML specimen 12H033; 6 days; read-out: IC50

- compound: "Cn1cc(-n2cnc3c(NCc4nc5cc(Cl)c(Cl)cc5[nH]4)nc(N4CCOCC4)nc32)cn1"
  IC50 [nM]: 61.4
- compound: "CC(C)(C)c1cnc(CSc2cnc(NC(=O)C3CCNCC3)s2)o1"
  IC50 [nM]: 280
- compound: "CN(C)c1ccc(CC(=O)Nc2ncc(SCc3cccnc3)s2)cc1"
  IC50 [nM]: 2380
- compound: "CN(C)C/C=C/C(=O)Nc1ccc(C(=O)N2CCC[C@@H](Nc3ncc(Cl)c(-c4c[nH]c5ccccc45)n3)C2)cc1"
  IC50 [nM]: 127
